system: A549; experiment: cells; conditions: Homo sapiens, A549, 72 h
Description: Antiproliferative activity against human A549 cells assessed as inhibition of cell proliferation incubated for 72 hrs by MTT assay
# Lookup of reported pIC50 keyed by entry
// field semantics: pIC50 = negative decimal log of concentration (mol/L)

Please review the entries below; each comes with its answer.
Entry Smiles: Cc1oc2ncn(CCN(C)C)c(=O)c2c1C(=O)Nc1ccc(S(N)(=O)=O)nc1
pIC50: 5.34
//
Entry Smiles: Cc1oc2ncn(CCCN3CCCCC3)c(=O)c2c1C(=O)Nc1ccc(S(N)(=O)=O)nc1
pIC50: 5.07
//
Entry Smiles: Cc1oc2ncn(CCN3CCCC3)c(=O)c2c1C(=O)Nc1ccc(S(N)(=O)=O)nc1
pIC50: 5.68
//
Entry Smiles: Cc1oc2ncn(CCN3CCCCC3)c(=O)c2c1C(=O)Nc1ccc(S(N)(=O)=O)nc1
pIC50: 4.95

// returns reported pIC50 for input Cc1cc(Nc2ccc(NC(=O)c3ccc(Nc4ccnc5ccccc45)cc3)cc2)nc(N)n1
5.05

Endpoint output: pIC50 of Cc1oc2ncn(CCCN3CCCC3)c(=O)c2c1C(=O)Nc1ccc(S(N)(=O)=O)nc1 . Value?
4.80

###

biological target: DNMT3A2/3L complex (Homo sapiens) (UniProt Q9Y6K1+Q9UJW3); test: Inhibition of N-terminal His-tagged human DNMT3A (623 to 912 residues)/N-terminal GST-tagged human DNMT3L (160 to 387 residues) co-expressed in baculovirus infected Sf9 cells assessed as DNA methylation using DNA oligonucleotide IDT-01 as substrate at 10 uM preincubated for 15 mins followed by substrate addition in presence of [3H]-SAM and measured after 4 hrs by radioactive methylation assay; details: time 255.0 min
Sequence (Q9Y6K1 whole entry, looked up, the tested form may be a part): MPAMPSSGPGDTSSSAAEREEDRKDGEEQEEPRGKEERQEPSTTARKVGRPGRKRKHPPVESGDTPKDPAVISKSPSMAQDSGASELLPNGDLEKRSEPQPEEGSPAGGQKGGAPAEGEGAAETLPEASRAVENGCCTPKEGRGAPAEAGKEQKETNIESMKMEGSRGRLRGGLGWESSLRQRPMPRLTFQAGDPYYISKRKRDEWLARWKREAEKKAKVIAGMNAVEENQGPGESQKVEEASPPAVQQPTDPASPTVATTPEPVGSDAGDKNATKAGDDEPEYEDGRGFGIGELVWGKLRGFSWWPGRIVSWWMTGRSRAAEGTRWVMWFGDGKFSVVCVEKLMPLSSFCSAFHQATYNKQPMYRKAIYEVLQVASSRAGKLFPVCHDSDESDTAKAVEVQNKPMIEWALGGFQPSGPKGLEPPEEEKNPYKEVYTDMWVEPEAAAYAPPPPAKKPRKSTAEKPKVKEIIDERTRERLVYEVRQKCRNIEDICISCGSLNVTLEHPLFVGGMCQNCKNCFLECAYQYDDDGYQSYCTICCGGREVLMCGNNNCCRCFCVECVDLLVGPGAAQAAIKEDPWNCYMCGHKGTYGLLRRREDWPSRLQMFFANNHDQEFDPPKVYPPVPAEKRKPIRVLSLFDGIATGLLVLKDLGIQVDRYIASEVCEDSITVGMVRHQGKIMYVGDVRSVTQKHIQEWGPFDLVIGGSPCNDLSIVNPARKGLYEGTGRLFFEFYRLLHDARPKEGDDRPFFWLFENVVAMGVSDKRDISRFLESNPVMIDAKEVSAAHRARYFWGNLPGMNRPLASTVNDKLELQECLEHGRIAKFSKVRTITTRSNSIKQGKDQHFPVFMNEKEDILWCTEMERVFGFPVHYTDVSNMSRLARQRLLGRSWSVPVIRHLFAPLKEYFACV
Sequence (Q9UJW3 whole entry, looked up, the tested form may be a part): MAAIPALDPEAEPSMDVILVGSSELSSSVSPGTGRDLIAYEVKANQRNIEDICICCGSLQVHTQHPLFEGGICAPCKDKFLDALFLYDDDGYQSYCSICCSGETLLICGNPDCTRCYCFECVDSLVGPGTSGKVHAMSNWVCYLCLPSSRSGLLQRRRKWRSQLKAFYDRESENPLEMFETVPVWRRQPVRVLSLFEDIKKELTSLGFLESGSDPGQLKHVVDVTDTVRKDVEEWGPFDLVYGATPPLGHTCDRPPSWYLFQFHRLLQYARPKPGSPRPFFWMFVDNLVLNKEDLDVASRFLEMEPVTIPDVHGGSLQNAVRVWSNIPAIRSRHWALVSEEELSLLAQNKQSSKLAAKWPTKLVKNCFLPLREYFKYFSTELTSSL
Sequence (Q9Y6K1 whole entry, looked up, the tested form may be a part): as the sequence (Q9Y6K1 whole entry, looked up, the tested form may be a part) above
Property Measured: inhibition (%)
Number in %, nothing else.

Entry Smiles: Cc1oc2ncn(CCN3CCCCC3)c(=O)c2c1C(=O)Nc1ccc(S(N)(=O)=O)nc1
inhibition, %: 70.5
--
Entry Smiles: Cc1oc2ncn(CCCN3CCCCC3)c(=O)c2c1C(=O)Nc1ccc(S(N)(=O)=O)nc1
inhibition, %: 66
--
Entry Smiles: Cc1oc2ncn(CCCN3CCCC3)c(=O)c2c1C(=O)Nc1ccc(C#N)cc1
inhibition, %: 33.7
--
Entry Smiles: Cc1oc2ncn(CCN3CCCC3)c(=O)c2c1C(=O)Nc1ccc(S(N)(=O)=O)nc1
inhibition, %: 83.8

GET /values?readout=inhibition&item= Cc1oc2ncn(CCCN(C)C)c(=O)c2c1C(=O)Nc1ccc(C#N)cc1
36.4

# input compound: Cc1oc2ncn(CCN(C)C)c(=O)c2c1C(=O)Nc1ccc(S(N)(=O)=O)nc1 ; wanted: its inhibition
74.7

Which inhibition value belongs to Cc1oc2ncn(CCCN3CCOCC3)c(=O)c2c1C(=O)Nc1ccc(S(N)(=O)=O)nc1 ?
36

Form field: reported inhibition of Cc1sc2ncn(CCCN(C)C)c(=O)c2c1C(=O)Nc1ccc(S(N)(=O)=O)nc1
51.3

GET /values?readout=inhibition&item= Cc1oc2ncn(CCCN3CCCC3)c(=O)c2c1C(=O)Nc1ccc(S(N)(=O)=O)nc1
69.6

###

molecular target: UniProt:Q9Y6K1; test: Inhibition of DNMT3A in human HCT-116 cells assessed as increase in p53 protein level at 1 uM incubated for 72 hrs by Western blot analysis; type: cell-based
Calls of active or inactive are those of the source. No cut-off for these calls is given here.
Entry note: the call must match one of active, inactive

Entry Smiles: Cc1cc(Nc2ccc(NC(=O)c3ccc(Nc4ccnc5ccccc45)cc3)cc2)nc(N)n1
Class Label: inactive
//
Entry Smiles: Cc1oc2ncn(CCN(C)C)c(=O)c2c1C(=O)Nc1ccc(S(N)(=O)=O)nc1
Class Label: active
//
Entry Smiles: Cc1oc2ncn(CCN3CCCC3)c(=O)c2c1C(=O)Nc1ccc(S(N)(=O)=O)nc1
Class Label: active

Turning to the following compound.
Recorded test call requested for Cc1oc2ncn(CCN3CCCCC3)c(=O)c2c1C(=O)Nc1ccc(S(N)(=O)=O)nc1
active
